# pIC50 listing for each entry below
- target_entity: UniProt:Q9Y5Y4
- procedure_summary: Human CRTH2 Receptor Binding Assay (whole cell, [3H]ramatroban)
- Parameters: expressed in transfected cells; host or cells: CHO-K1
- details: CHO-K1 cells expressing human CRTH2 and G-alpha16; 20 nM [3H]ramatroban; 1 hour, room temperature
- Experimental: A whole cell receptor binding assay using [^3H]ramatroban as the competing radioactive ligand was employed to evaluate the compound binding activity to human CRTH2. […] The binding reactions (0.2 mL) were performed in 96-well plates at room temperature in PBS containing 1.5×10^5 cells, 10 mM MgCl2, 0.06% BSA, 20 nM [^3H]ramatroban, and test compound at various concentrations. […] Specific binding data were obtained by subtracting the radioactivity of non-specific binding from each binding data. […]
Keep it numeric: pIC50 is minus log10 of the concentration in mol/L.

Before answering, review these 3 worked examples.
CS(=O)(=O)c1ccc(C(=O)c2cc(CC(=O)O)cc3ccccc23)cc1	7.77
CS(=O)(=O)c1ccc(C(=O)c2cc(CC(=O)O)cc3ccc(F)cc23)c(Cl)c1	8.07
Cc1c(CC(=O)O)cc2ccc(Cl)cc2c1Cc1ccc(S(C)(=O)=O)cc1	8.00

// pIC50 lookup, compound = `CCOC(=O)N1CCN(S(=O)(=O)c2ccc(C(=O)c3cc(CC(=O)O)cc4ccc(F)cc34)cc2)CC1` , result: 8.08

Recorded result, `CN(C)S(=O)(=O)c1ccc(Cc2cc(CC(=O)O)cc3ccc(F)cc23)cc1` , pIC50: 8.22

----------
// reported pIC50 per item
- target_entity: human CRTH2 (Homo sapiens, UniProt Q9Y5Y4)
- Sequence (Q9Y5Y4 1-395): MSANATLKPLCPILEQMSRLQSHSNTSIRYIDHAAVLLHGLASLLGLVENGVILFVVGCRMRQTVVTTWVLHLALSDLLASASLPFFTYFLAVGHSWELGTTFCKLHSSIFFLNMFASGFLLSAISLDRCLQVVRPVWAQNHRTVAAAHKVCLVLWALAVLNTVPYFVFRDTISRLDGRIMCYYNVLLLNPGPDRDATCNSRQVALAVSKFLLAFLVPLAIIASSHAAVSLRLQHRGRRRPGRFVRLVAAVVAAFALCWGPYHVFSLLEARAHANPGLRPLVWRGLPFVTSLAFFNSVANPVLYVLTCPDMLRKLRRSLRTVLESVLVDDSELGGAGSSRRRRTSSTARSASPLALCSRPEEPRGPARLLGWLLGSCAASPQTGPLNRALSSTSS
- procedure_summary: Human CRTH2 Receptor Binding Assay (whole cell, [3H]ramatroban)
- Parameters: expressed in transfected cells; host or cells: CHO-K1
- details: CHO-K1 cells expressing human CRTH2 and G-alpha16; 20 nM [3H]ramatroban; 1 hour, room temperature
The meaning of pIC50 here: minus log10 of the concentration in molar units.

CCS(=O)(=O)c1ccc(C(O)c2cc(CC(=O)O)cc3ccc(F)cc23)cc1 (stereo not drawn) [Example 16-7]	7.76
CCS(=O)(=O)c1ccc(Cc2cc(CC(=O)O)cc3ccc(F)cc23)c(C)c1 [Example 8-7]	8.27

Memo: O=C(O)Cc1cc(C(=O)c2ccc(S(=O)(=O)N3CCCCC3)cc2)c2cc(F)ccc2c1 [Example 2-21] , reported pIC50: 8.42
